I'd be grateful if you could share measured Alpha Naphthol by HPLC (% w/w) for these entries.
# test_method_notes: 6 month dry powder stability, Alpha Naphthol content by HPLC
# Assay type: physicochemical
# condition_details: 40 ° C., 3 months
Report the value in % w/w with no unit label.

Input line: Could you share which Alpha Naphthol by HPLC (% w/w) value was measured for C[C@H](NP(=O)(OC[C@H]1O[C@@H](n2cc(F)c(=O)[nH]c2=O)CC1O)Oc1cccc2ccccc12)C(=O)OCc1ccccc1 (stereo partly shown) [Example 3, Batch 3] ?
Output line: 0.17

Input line: Need Alpha Naphthol by HPLC (% w/w), item C[C@H](NP(=O)(OC[C@H]1O[C@@H](n2cc(F)c(=O)[nH]c2=O)CC1O)Oc1cccc2ccccc12)C(=O)OCc1ccccc1 (stereo partly shown) [Example 3, Batch 1]
Output line: 0.14

Input line: What value of Alpha Naphthol by HPLC (% w/w) has been reported for the following compound? C[C@H](NP(=O)(OC[C@H]1O[C@@H](n2cc(F)c(=O)[nH]c2=O)CC1O)Oc1cccc2ccccc12)C(=O)OCc1ccccc1 (stereo partly shown) [Example 3, Batch 2]
Output line: 0.42

Input line: Item C[C@H](NP(=O)(OC[C@H]1O[C@@H](n2cc(F)c(=O)[nH]c2=O)CC1O)Oc1cccc2ccccc12)C(=O)OCc1ccccc1 (stereo partly shown) [Comparative Example 4] has what recorded Alpha Naphthol by HPLC (% w/w)?
Output line: 0.18
